System: CAKI-1 renal
experiment-notes: NCI-60 one-dose screen, 48 h (100 = growth as untreated, 0 = no growth, -100 = all killed)
conditions-used: 10 µM
The panel holds about 83,000 compounds, 20% with a hit somewhere; the sample as a whole holds those more often.
# cutoff 50% applies to growth; >= gives Satisfied, < gives Not satisfied

> print(dat)
                                   molecule     class.name
1  COc1ccc(OC)c(NC2=C(Cl)C(=O)C(C)=C(C)C2=O)c1      Satisfied
2  Cn1c(SC(C(=O)Nc2ccc(F)cc2)c2ccccc2)nc2ccccc2c1=O (stereo not given)      Satisfied
3  CC(=O)Nc1ccc(C)c(Nc2cc(-c3ccc(-n4cccn4)cc3)[nH]n2)c1  Not satisfied
4  Cc1ccc(/C=C/CC(=O)Nc2ccc(C(=O)Nc3ccc(F)cc3N)cc2)cn1      Satisfied
5  COc1ccc(C2C(C#N)=C(N)Oc3c2sc2ccc(C)cc32)cc1 (stereo not given)  Not satisfied
